Measured cell count, listed per entry.
Experiment: inhibitors of TNFa-induced NFkB p65 translocation, primary screen, imaging, HUVEC, MLSMR starter and 10KST1 sets (AID 438);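 also: compound added about 3h40 before a 20 min TNFalpha stimulation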
Details: HUVEC TNFa-induced p65 nuclear translocation; measured here: nuclei count (cytotoxicity indicator), at 2.08 µM
The answer should be written as a number, with no unit following it.

Worked cases, cell count given:
cell count for O=C(Nc1ccc(CN2CCCCC2)cc1)c1ccc2c(c1)OCO2 ?
438

cell count for COc1ccc(CCNC(=O)C2CCN(Cc3nc(-c4cccc(Cl)c4)oc3C)CC2)cc1OC ?
400

cell count for COC(=O)c1ccccc1NC(=O)Nc1cc(C)cc(C)n1 ?
205

cell count for CCOc1ccc(S(=O)(=O)Nc2ccccc2C(=O)Nc2ccccc2N2CCOCC2)cc1 ?
322

Next:
cell count for CC1c2nc3ccccc3n2C(CC(=O)NCc2ccccn2)C(=O)N1Cc1ccccc1 (stereo not drawn) ?
678

cell count for O=C(Cn1c(=O)[nH]n(-c2ccccc2)c1=O)N1CCCc2ccccc21 ?
328

* * *

Assay: Primary imaging screen for DUSP6 inhibitors that restore phospho-Erk in transfected HeLa cells, chemical complementation (AID 609)
Details: HeLa MKP-3 transfected, phospho-Erk imaging KS statistic; measured here: nuclear pErk red intensity z-score; at 10 µM; stronger effect = higher value; cells stimulated with TPA for 15 min
Rule: z-score of 0.05 or more gives y; anything lower gives n.

# count of solved cases: 4
Does O=C(O)c1ccc(COCC(F)(F)C(F)F)o1 have a reported z-score of at least 0.05?
y

Does CC(C)(C)NC[C@H](O)COc1nsnc1N1CCOCC1 have a reported z-score of at least 0.05?
y

Does O=c1c(O)c(-c2ccc(O)cc2O)oc2cc(O)cc(O)c12 have a reported z-score of at least 0.05?
n

Does CCN(CC)CCNC(=O)c1ccc(N)cc1 have a reported z-score of at least 0.05?
n

Now, please, on to the next compound.
Does CCn1cc(/C=N/O)c(C)n1 have a reported z-score of at least 0.05?
n

* * *

Measured nuclei count, listed per entry.
Test: endothelial E-selectin expression blockers – imaging, HUVEC, immunofluorescence, MLSMR starter and 10KST1 sets, primary screen (AID 487);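 also: 100% = median nuclei count of all wells on the same plate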
Details: HUVEC TNFalpha-induced E-selectin immunofluorescence imaging, at 2 µM; measured here: cell number, toxicity
Express your answer in %, writing the number without its unit.

Worked cases, nuclei count given:
nuclei count for COCCSc1ccccc1C(=O)Nc1cc(C)on1 ?
90.6

nuclei count for CCOC(=O)C1CCCN(c2nc3ccccc3nc2C(C#N)C(=O)NCc2ccccc2)C1 (stereo not given) ?
126

nuclei count for COc1cccc(Oc2ccc(N)cc2)c1 ?
97.5

nuclei count for CCN(CC(=O)NC(=O)NCc1ccco1)Cc1nc2ccccc2c(=O)[nH]1 ?
68.4

nuclei count for Cc1ccc(NCc2nnc(SCC(=O)NCc3ccco3)n2CC2CCCO2)cc1Cl (stereo not given) ?
106

nuclei count for CCNc1nc(OC)nc(Oc2ccc(=O)n(-c3ccccc3)n2)n1 ?
124

nuclei count for CN(C)CCCC1(c2ccc(F)cc2)OCc2cc(C#N)ccc21 (stereo not given) ?
141

nuclei count for CCOc1ccccc1NC(=O)N1CCCC1C(=O)Nc1nnc(CC)s1 (stereo not given) ?
98.7

nuclei count for CCCCn1c(SCC(=O)c2ccc3c(c2)OCCO3)nnc1-c1ccco1 ?
110

nuclei count for Cc1ncc([N+](=O)[O-])n1CCO ?
110

Next:
nuclei count for CCCCNC(=O)OC(C)CNC(=O)Oc1cccc(C)c1 (stereo not given) ?
74.5

nuclei count for CN(C)c1nc(N)nc(CSc2nnnn2-c2cccc3ccccc23)n1 ?
103

nuclei count for Cc1cc(NC(=O)c2cnn3cccnc23)no1 ?
119

nuclei count for COCCCn1c(SCC(=O)N2CCc3ccccc32)nnc1-c1ccoc1C ?
56.1

nuclei count for COC(=O)c1ccccc1NC(=O)Nc1cc(C)cc(C)n1 ?
140
